- Tested on: ACHN renal
- measurement-protocol: NCI tumour cell line growth inhibition, 48 h
reported-endpoint: TGI (µM)
Number in µM, nothing else.

(Q) So what does the record say about TGI for CCCCCCCCCC(O)CC(=O)c1c(O)cccc1O (stereo not given) ?
(A) 53.7

(Q) Please look up its TGI: O=C(Nc1ccc2ncnc(Nc3ccc(Oc4cccc(F)c4)c(Cl)c3)c2c1)c1ccc(CN2CCOCC2)cc1
(A) 9.55

(Q) Quick one: TGI for O=c1nc(NC(c2ccccc2)(c2ccccc2)c2ccccc2)ccn1CCCl ?
(A) 99

(Q) I have this compound here, Nc1nc(Nc2ccc(Cl)cc2)sc1C(=O)c1c[nH]c2ccccc12 , and I need its recorded TGI.
(A) 36.2

(Q) Could you tell me which TGI is on file for CC/C=C\C[C@H](O)C/C=C1/C(=O)C=C[C@@H]1C/C=C\CCCC(=O)OC(C)C ?
(A) 3.79

(Q) Fill blank: measured TGI of the compound COc1cccc(Sc2ccc([N+](=O)[O-])c3no[n+]([O-])c23)c1 is ____.
(A) 8.78

Ref: PubChem BioAssay (NCI)
